- Cond: in methanol, 313.15 K
Reported property: solubility (mole fraction)
Give only the figure.

Record request: solubility (mole fraction) value, item COc1c(C(C)(C)C)cc([N+](=O)[O-])c(C)c1[N+](=O)[O-]
0.0144

----------
- Cond: in acetonitrile, 293.15 K
Reported property: solubility (mole fraction)
Give only the figure.

Record request: solubility (mole fraction) value, item COc1c(C(C)(C)C)cc([N+](=O)[O-])c(C)c1[N+](=O)[O-]
0.0819

----------
- Cond: in acetonitrile, 313.15 K
Reported property: solubility (mole fraction)
Give only the figure.

Record request: solubility (mole fraction) value, item COc1c(C(C)(C)C)cc([N+](=O)[O-])c(C)c1[N+](=O)[O-]
0.25
